- System: MDCK (Madin-Darby Canine Kidney Cells)
- TEST_METHOD_NOTES: in vitro
- MEASUREMENT_PARAMETERS: concentration 5 μM
READOUT_NAME: Recovery
Lab note: record the figure alone, no unit after it.

Task: Give Recovery for the following compound: Cc1cccc(C[C@@]2(C(=O)N[C@H](C(N)=O)[C@@H](C)O)CCCN2C(=O)[C@@H]2CCCN2C(=O)[C@@H](N)[C@@H](C)O)c1 [CM-8A]
Result: 83

Task: Give Recovery for the following compound: Cc1ccc(C[C@@]2(C(=O)N[C@H](C(N)=O)[C@@H](C)O)CCCN2C(=O)[C@@H]2CCCN2C(=O)[C@@H](N)[C@@H](C)O)cc1 [CM-5A]
Result: 100

Task: Give Recovery for the following compound: C[C@@H](O)[C@H](N)C(=O)N1CCC[C@H]1C(=O)N1CCC[C@@]1(Cc1ccc(F)cc1)C(=O)N[C@H](C(N)=O)[C@@H](C)O [CM-6A]
Result: 100

Task: Give Recovery for the following compound: C[C@@H](O)[C@H](N)C(=O)N1CCC[C@H]1C(=O)N1CCC[C@@]1(Cc1ccc(C(F)(F)F)cc1)C(=O)N[C@H](C(N)=O)[C@@H](C)O [CM-7A]
Result: 68

Task: Give Recovery for the following compound: C[C@@H](O)[C@H](N)C(=O)N1CCC[C@H]1C(=O)N1CCC[C@@]1(Cc1cccc(F)c1)C(=O)N[C@H](C(N)=O)[C@@H](C)O [CM-9A]
Result: 100

---

- TEST_METHOD_NOTES: Metabolic stability in liver microsomes, rat
- Format: in vitro ADME
- MEASUREMENT_PARAMETERS: Rat (M) microsomes, 1 μM
READOUT_NAME: % Remaining at 60 minutes (%)
Respond numerically; units are % and should not be typed.

Consider the following illustrative entries.
[[record]]
compound = "C[C@@H](O)[C@H](N)C(=O)N1CCC[C@H]1C(=O)N1CCC[C@@]1(Cc1ccc(F)cc1)C(=O)N[C@H](C(N)=O)[C@@H](C)O [CM-6A]"
units_of_measure = "%"
reported_measurement = 100

[[record]]
compound = "Cc1ccc(C[C@@]2(C(=O)N[C@H](C(N)=O)[C@@H](C)O)CCCN2C(=O)[C@@H]2CCCN2C(=O)[C@@H](N)[C@@H](C)O)cc1 [CM-5A]"
units_of_measure = "%"
reported_measurement = 95

[[record]]
compound = "C[C@@H](O)[C@H](N)C(=O)N1CCC[C@H]1C(=O)N1CCC[C@@]1(Cc1cccc(F)c1)C(=O)N[C@H](C(N)=O)[C@@H](C)O [CM-9A]"
units_of_measure = "%"
reported_measurement = 100

[[record]]
compound = "C[C@@H](O)[C@H](N)C(=O)N1CCC[C@H]1C(=O)N1CCC[C@@]1(Cc1ccccc1)C(=O)N[C@H](C(N)=O)[C@@H](C)O [CM-4A]"
units_of_measure = "%"
reported_measurement = 68


Task: Give % Remaining at 60 minutes for the following compound: Cc1cccc(C[C@@]2(C(=O)N[C@H](C(N)=O)[C@@H](C)O)CCCN2C(=O)[C@@H]2CCCN2C(=O)[C@@H](N)[C@@H](C)O)c1 [CM-8A]
Result: 91

---

- SYSTEM_NAME: UniProtKB P35439
- TEST_METHOD_NOTES: [^3H] MK-801 binding assay
- MEASUREMENT_PARAMETERS: rat forebrain membranes, 50 μM glutamate; read-out: Potency (EC50)
Residues, ends and D or L forms follow the SMILES beside them.
READOUT_NAME: pEC50
In plain terms, pEC50 is the concentration in mol/L turned into minus its base-10 logarithm.

Task: Give pEC50 for the following molecule: C[C@@H](O)[C@H](N)C(=O)N1CCC[C@H]1C(=O)N1CCC[C@H]1C(=O)N[C@@H](CO)C(N)=O [CM-2] (H-TPPS-NH2)
Result: 11.22

These entries and their values trace back to patent US20150051262A1.
